Taken from patent US20110300138A1.

target: T1, TSHR260-alkaline phosphatase (TSHR260-AP) (human, UniProt P05187 23-511); experiment: TSHR260-AP bridge ELISA, full length TSHR on wells; 0.005 µg/mL, diluted in assay buffer
T1 construct: Fusion of human TSHR amino acids 22-260 (construct codes 1-260, 1-21 being the leader) with secreted alkaline phosphatase, expressed in insect cells; In the ELISA the antibody bridges full length detergent-solubilised TSHR coated on the wells and TSHR260-AP in the liquid phase
Mean absorbance at 405 nm listing for selected binders.
The reply should be a number in absorbance at 405 nm, with the unit left off.

Example entries and their recorded answers appear below.
Binder: K1-18 IgG (antibody, V domains shown, Human IgG1 kappa purified from hetero-hybridoma supernatant) VH: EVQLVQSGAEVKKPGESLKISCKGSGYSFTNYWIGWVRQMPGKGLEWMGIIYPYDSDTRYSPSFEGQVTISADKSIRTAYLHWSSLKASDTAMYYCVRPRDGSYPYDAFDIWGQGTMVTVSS VL: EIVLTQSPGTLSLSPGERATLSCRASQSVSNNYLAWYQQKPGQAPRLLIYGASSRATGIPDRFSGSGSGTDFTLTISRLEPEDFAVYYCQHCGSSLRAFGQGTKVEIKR
Value Reported: 0.136
//
Binder: K1-18 Fab (Fab, V domains shown, residue limits as in claim 65) VH: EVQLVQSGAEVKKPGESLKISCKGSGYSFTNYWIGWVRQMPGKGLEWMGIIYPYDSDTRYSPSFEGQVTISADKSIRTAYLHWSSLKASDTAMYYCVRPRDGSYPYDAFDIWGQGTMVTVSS VL: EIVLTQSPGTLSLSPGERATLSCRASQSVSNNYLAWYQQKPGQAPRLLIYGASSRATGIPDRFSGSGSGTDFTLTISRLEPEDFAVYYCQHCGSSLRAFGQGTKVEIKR
Value Reported: -0.004
//
Binder: K1-70 Fab (Fab, V domains shown, residue limits as in claims 56 and 57) VH: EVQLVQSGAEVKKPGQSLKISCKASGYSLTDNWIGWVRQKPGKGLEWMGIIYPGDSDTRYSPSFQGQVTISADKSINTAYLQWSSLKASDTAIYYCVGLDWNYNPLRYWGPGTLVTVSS VL: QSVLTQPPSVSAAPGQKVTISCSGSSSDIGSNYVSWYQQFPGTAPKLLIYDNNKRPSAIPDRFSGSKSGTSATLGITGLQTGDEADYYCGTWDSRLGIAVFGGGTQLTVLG
Value Reported: -0.004

# query: Mean absorbance at 405 nm of entry K1-70 IgG (antibody, V domains shown, Human IgG1 lambda purified from hetero-hybridoma supernatant) VH: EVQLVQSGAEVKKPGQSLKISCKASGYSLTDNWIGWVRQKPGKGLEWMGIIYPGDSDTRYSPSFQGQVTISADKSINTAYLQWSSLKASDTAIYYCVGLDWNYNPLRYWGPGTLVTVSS VL: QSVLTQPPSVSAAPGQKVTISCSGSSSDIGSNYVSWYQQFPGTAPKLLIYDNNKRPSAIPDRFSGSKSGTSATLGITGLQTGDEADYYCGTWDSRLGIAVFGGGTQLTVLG
0.085
